System: ERK8
Construct: gene MAPK15
Details: concentration: 1 μM, replicates: in singlicate; n = 1;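 further: KINOMEscan kinase panel screen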
READOUT TYPE: %Inh

Example results:
CSc1ccc(-c2nc3n(c2-c2ccncc2)CCC3)cc1    1%
Cn1cncc1-c1cc2c(Nc3ccc(OCc4ccccc4)cc3)ncnc2cn1    0%
COc1ccc2cc(-c3nc(-c4ccccc4C(C)C)[nH]c3-c3ccncc3)ccc2c1    0%
Fc1ccc(-c2nn3cccc(F)c3c2-c2ccncc2)cc1    15%
Cc1nccc(-c2c(-c3ccc(F)cc3)ncn2CCCN2CCOCC2)n1.Cl    9%

Provide each entry's %Inh from the list below.
1. CNCc1ccc2nc(NC(=O)c3ccc(C(C)(C)C)cc3)cn2c1
2. CNc1cc(-c2ccc3c(N)n[nH]c3c2)nc(N)n1
3. CC(C)c1ccc(O)cc1Nc1ccnc2ccc(C(F)(F)F)cc12
4. Cc1ccc(NC(=O)c2ccc(Cl)cc2)cc1-c1ccc(C(=O)Nc2ccncc2)cc1
5. O=c1cc(N2CCOCC2)nc2n(Cc3ccccc3F)ccn12
6. CC[C@@H]1CO[C@H](C(=O)Nc2ccccc2)CN1c1cc(-c2ccc3c(N)n[nH]c3c2)nc(NC)n1

[out]
1: 2%; 2: 0%; 3: 17%; 4: 0%; 5: 0%; 6: 0%

###

Test system: NEK7
Conditions: concentration: 1 μM, replicates: in singlicate; n = 1
Could you please report measured %Inh for the items listed next?
Numbers only, in %.

Example results:
COc1ccc(Nc2nccc(NCCNC(=O)Nc3cc(C)ccc3C)n2)cc1    8
O=C1NC(=O)C(c2ccc(Cl)cc2)=C1Nc1ccc(O)cc1    11

Provide each entry's %Inh from the list below.
1. CNc1nc(-c2ccc3c(N)n[nH]c3c2)cc(N2C[C@@H](C(=O)NC3CCCCC3)OC[C@H]2C)n1
2. CC(C)c1ccc(O)cc1Nc1ccnc2ccc(C(F)(F)F)cc12
3. COc1ccc(Nc2nccc(N3CCC(NC(=O)C(C)c4ccc(Cl)cc4)C3)n2)cc1 (stereo not drawn)
4. Cl.Cl.Cl.N#Cc1ccc(CCNc2nccc(-c3cccc(CN4CCNCC4)c3)n2)cc1
5. Cc1ccc(NC(=O)c2ccc(Cl)cc2)cc1-c1ccc(C(=O)Nc2ccncc2)cc1
6. COc1ccc(Nc2nccc(N3CCC(NC(=O)c4cc5ccccc5s4)C3)n2)cc1 (stereo not drawn)

[out]
0
0
6
0
0
0

Provide each entry's %Inh from the list below.
1. COC(=O)c1cccc(NC(=O)NC2CCN(c3ccnc(Nc4ccc(F)cc4)n3)C2)c1 (stereo not drawn)
2. CNC(=O)c1ccc(C)c(-n2c(C)cc(OCc3ccc(F)cc3F)c(Br)c2=O)c1

[out]
[0, 2]

Provide each entry's %Inh from the list below.
1. Nc1cccc(-c2ccc3c(N)n[nH]c3c2)n1
2. COc1ccc(Nc2nccc(N3CCC(NC(=O)C(C)c4ccc(Cl)cc4)CC3)n2)cc1 (stereo not drawn)
3. Cc1ccccc1-c1cc(-c2c[nH]nc2-c2ccccn2)ccn1
4. COc1ccc(CSc2nnc(-c3ccc4c(c3)CCO4)o2)cc1
5. CS(=O)(=O)CCNCc1nc(-c2ccc3ncnc(Nc4ccc(OCc5ccccc5)c(Cl)c4)c3c2)cs1.Cl
6. Nc1ncnc2occ(-c3ccc4c(c3)CCN4C(=O)Cc3cc(F)ccc3F)c12

[out]
0
0
0
0
0
0

###

Could you please report measured %Inh for the items listed next?
Tested on: TRKB
Details: concentration: 1 μM, replicates: in singlicate; n = 1

Example results:
Cc1ccc(-c2nc(Nc3ccncc3)c3ccccc3n2)s1    0%
COC(=O)c1cccc(NC(=O)NC2CCN(c3ccnc(Nc4ccc(F)cc4)n3)C2)c1 (centres unmarked)    58%
COC(=O)C(NC(=O)NC1CCN(c2ccnc(Nc3ccc(F)cc3)n2)C1)c1ccccc1 (centres unmarked)    6%
CC[C@@H]1CO[C@H](C(=O)Nc2ccccc2)CN1c1cc(-c2ccc3c(N)n[nH]c3c2)nc(NC)n1    0%

Continue with the next compound.
[in] Retrieve %Inh on TRKB; query `Cc1cnc(N)c(/C=C/c2cncc(C(=O)NCCc3ccc(Cl)cc3Cl)c2)c1.Cl`
[out] 0%

###

Could you please report measured %Inh for the items listed next?
Test system: BMPR2
Conditions: concentration: 1 μM, replicates: in singlicate; n = 1
Answers are plain numbers, in %.

Example results:
Fc1ccc(-c2nc3n(c2-c2ccncc2)CCS3)cc1    0
Nc1cccc(-c2ccc3c(N)n[nH]c3c2)n1    0
CSc1ccc(-c2nc3n(c2-c2ccncc2)CCC3)cc1    1

Provide each entry's %Inh from the list below.
1. COc1cccc(NC(=O)Nc2ccc(C)c(-c3ccc(C(=O)Nc4ccncc4)cc3)c2)c1
2. CS(=O)(=O)CCNCc1nc(-c2ccc3ncnc(Nc4ccc(OCc5ccccc5)c(Cl)c4)c3c2)cs1.Cl
3. Cl.Cl.Cl.N#Cc1ccc(CCNc2nccc(-c3cccc(CN4CCNCC4)c3)n2)cc1
4. Cc1nccc(-c2c(-c3ccc(F)cc3)ncn2CCCN2CCOCC2)n1.Cl
5. COc1ccc(Nc2nccc(N3CCC(NC(=O)c4cc5ccccc5s4)C3)n2)cc1 (stereo not drawn)

[out]
[0, 15, 0, 41, 11]

Provide each entry's %Inh from the list below.
1. Cc1cnc(N)c(/C=C/c2cncc(C(=O)NCCc3ccc(Cl)cc3Cl)c2)c1.Cl
2. CCn1c(-c2ccccc2)nc2cnccc21
3. COC(=O)c1cccc(NC(=O)NC2CCN(c3ccnc(Nc4ccc(F)cc4)n3)C2)c1 (stereo not drawn)
4. COC(=O)C(NC(=O)NC1CCN(c2ccnc(Nc3ccc(F)cc3)n2)C1)c1ccccc1 (stereo not drawn)
5. CN1c2ccc(-c3ccc(C(N)=O)cc3)cc2-c2[nH]ncc2S1(=O)=O
6. Cc1ccc(NC(=O)Nc2ccc(Cl)cc2)cc1-c1ccc(C(=O)Nc2ccncc2)cc1

[out]
1: 0; 2: 10; 3: 0; 4: 17; 5: 0; 6: 0

Provide each entry's %Inh from the list below.
1. COc1cccc(C2=C(Nc3cc(Cl)c(O)c(Cl)c3)C(=O)NC2=O)c1
2. Nc1nccc(-c2c(-c3ccc(F)cc3)ncn2C2CCN(Cc3ccccc3)CC2)n1
3. Cc1ccc(NC(=O)Nc2ccc(Cl)c(C(F)(F)F)c2)cc1-c1ccc(C(=O)Nc2ccncc2)cc1
4. Cn1cncc1-c1cc2c(Nc3ccc(OCc4ccccc4)cc3)ncnc2cn1
5. Cc1ccccc1Cn1ccn2c(=O)cc(N3CCOCC3)nc12
6. CNc1cc(-c2ccc3c(N)n[nH]c3c2)nc(N)n1

[out]
[1, 0, 0, 8, 0, 5]

[in] Read the entry `COc1ccc(CSc2nnc(-c3ccc4c(c3)CCO4)o2)cc1` and write its reported %Inh.
[out] 0

###

Test system: PRKG1
Conditions: concentration: 1 μM, replicates: in singlicate; n = 1
Could you please report measured %Inh for the items listed next?
Answers are plain numbers, in %.

Provide each entry's %Inh from the list below.
1. COc1cccc(C2=C(Nc3cc(Cl)c(O)c(Cl)c3)C(=O)NC2=O)c1
2. COC(=O)c1cccc(NC(=O)NC2CCN(c3ccnc(Nc4ccc(F)cc4)n3)C2)c1 (stereo not drawn)
3. CC(=O)c1c(C)c2cnc(Nc3ccc(N4CCNCC4)cn3)nc2n(C2CCCC2)c1=O

[out]
0
0
9

###

Could you please report measured %Inh for the items listed next?
System: MST2
Construct: gene STK3
Conditions: concentration: 1 μM, replicates: in singlicate; n = 1
One number for each entry, in %.

Fc1ccc(-c2nc[nH]c2-c2ccncc2)cc1 [SB-217360]    0
CC(=O)c1cccc(NC(=O)NC2CCN(c3ccnc(Nc4ccc(F)cc4)n3)C2)c1 (stereo not drawn) [GSK1379710]    22
COc1nccc(-c2c(-c3ccc(F)cc3)ncn2CCCN2CCOCC2)n1 [SB-282852]    22

Provide each entry's %Inh from the list below.
1. COC(=O)C(Cc1ccccc1)NC(=O)NC1CCN(c2ccnc(Nc3ccc(F)cc3)n2)C1 (stereo not drawn) [GSK1379714]
2. COc1ccc(CSc2nnc(-c3ccc4nccn4c3)o2)cc1C(F)(F)F
3. CC(=O)c1c(C)c2cnc(Nc3ccn(C)n3)nc2n(C2CCCC2)c1=O
4. O=c1cc(N2CCOCC2)nc2n(Cc3ccccc3F)ccn12 [GSK2297428]
5. Cc1ccc(NC(=O)Nc2ccc(Cl)c(C(F)(F)F)c2)cc1-c1ccc(C(=O)Nc2ccncc2)cc1 [GSK1398470]
6. O=c1cc(N2CCOCC2)nc2n(Cc3cccc(Cl)c3Cl)c3ccccc3n12 [GSK2299009]
7. Cc1ccc(NC(=O)Nc2ccccc2F)cc1-c1ccc(C(=O)Nc2ccncc2)cc1 [GSK1398477]

[out]
1. 0
2. 0
3. 0
4. 0
5. 0
6. 9
7. 7

Provide each entry's %Inh from the list below.
1. c1ccc(-c2ccnc3[nH]ccc23)cc1 [SB-693578]
2. CS(=O)(=O)CCNCc1nc(-c2ccc3ncnc(Nc4ccc5c(cnn5Cc5ccccc5)c4)c3c2)cs1.Cl.Cl [GW569716]
3. COc1ccc(CSc2nnc(-c3ccc4ncsc4c3)o2)cc1C(F)(F)F
4. CCn1c(-c2c(N)noc2C)nc2cnccc21 [SB-737856]
5. COc1ccc(Nc2nccc(NCCNC(=O)Nc3cc(C)ccc3C)n2)cc1 [GSK1379899]
6. Cc1cccc2c(-c3ccncn3)c(-c3ccc(F)cc3)nn12 [GW515532]
7. Nc1cccc(-c2ccc3c(N)n[nH]c3c2)n1 [GSK2192730]

[out]
4
0
0
0
0
0
21
